Just for reference, patent US20240016938A1 is where these values come from.

Experiment: Phase 1 open-label, fixed-sequence, single-ascending dose and food-effect PK study of MT1621 in adult healthy subjects
Assay type: in vivo, human
Details: both sexes, human, plasma, oral, 86.7 mg/kg, Treatment B: single 86.7 mg/kg MT1621, fasted; baseline-adjusted plasma; median (minimum, maximum); read-out: Tmax
Experimental Endpoint: Tmax
State the result as a value with its unit after it.

>  <Entry Smiles>
Nc1ccn([C@H]2C[C@H](O)[C@@H](CO)O2)c(=O)n1

>  <Experimental Endpoint>
Tmax

>  <Result>
1.51 h

$$$$

Now take the following compound into account.
query: What measured Tmax goes with Cc1cn([C@H]2C[C@H](O)[C@@H](CO)O2)c(=O)[nH]c1=O ?
result: 1.06 h

====

Assign AUC(0-t) to each entry below.
Experiment: Phase 1 open-label, fixed-sequence, single-ascending dose and food-effect PK study of MT1621 in adult healthy subjects
Format: in vivo, human
Conditions: both sexes, human, plasma, oral, 133.3 mg/kg, Treatment D: single 133.3 mg/kg MT1621, fed (high-fat breakfast); baseline-adjusted plasma; geometric mean (geometric CV %); read-out: AUC0-48
Give bare numbers, in ng·h/mL.

>  <Entry Smiles>
Cc1cn([C@H]2C[C@H](O)[C@@H](CO)O2)c(=O)[nH]c1=O

>  <Unit Of Measure>
ng·h/mL

>  <AUC(0-t)>
141

$$$$

Now take the following compound into account.
query: What measured AUC(0-t) goes with Nc1ccn([C@H]2C[C@H](O)[C@@H](CO)O2)c(=O)n1 ?
result: 55.8

====

Test: Phase 1 open-label, fixed-sequence, single-ascending dose and food-effect PK study of MT1621 in adult healthy subjects
Format: in vivo, human
Conditions: both sexes, human, plasma, oral, 86.7 mg/kg, Treatment B: single 86.7 mg/kg MT1621, fasted; baseline-adjusted plasma; geometric mean (geometric CV %); read-out: AUC0-t
Experimental Endpoint: AUC(0-t) (ng·h/mL)
Answers are plain numbers, in ng·h/mL.

>  <Compound>
Cc1cn([C@H]2C[C@H](O)[C@@H](CO)O2)c(=O)[nH]c1=O [dT, β-D-2′-deoxythymidine]

>  <Experimental Endpoint>
AUC(0-t)

>  <Unit Of Measure>
ng·h/mL

>  <Number>
31.7

$$$$

Now take the following compound into account.
query: What measured AUC(0-t) goes with Nc1ccn([C@H]2C[C@H](O)[C@@H](CO)O2)c(=O)n1 [dC, β-D-2′-deoxycytidine] ?
result: 23.2

====

Assay: Phase 1 open-label, fixed-sequence, single-ascending dose and food-effect PK study of MT1621 in adult healthy subjects
Type: in vivo, human
Settings: both sexes, human, plasma, oral, 133.3 mg/kg, Treatment D: single 133.3 mg/kg MT1621, fed (high-fat breakfast); baseline-adjusted plasma; geometric mean (geometric CV %); read-out: Cmax
Experimental Endpoint: Cmax

I would be grateful if you could provide Cmax for each of the following entries.
1. Cc1cn([C@H]2C[C@H](O)[C@@H](CO)O2)c(=O)[nH]c1=O [dT, β-D-2′-deoxythymidine]
2. Nc1ccn([C@H]2C[C@H](O)[C@@H](CO)O2)c(=O)n1 [dC, β-D-2′-deoxycytidine]

result:
["40.1 ng/mL", "12.8 ng/mL"]

====

Test: Phase 1 open-label, fixed-sequence, single-ascending dose and food-effect PK study of MT1621 in adult healthy subjects
Format: in vivo, human
Conditions: both sexes, human, plasma, oral, 86.7 mg/kg, Treatment B: single 86.7 mg/kg MT1621, fasted; baseline-adjusted plasma; geometric mean (geometric CV %); read-out: AUC0-4
Assign AUC(0-t) to each entry below.
Numbers only, in ng·h/mL.

>  <Entry Smiles>
Cc1cn([C@H]2C[C@H](O)[C@@H](CO)O2)c(=O)[nH]c1=O

>  <Experimental Endpoint>
AUC(0-t)

>  <Unit Of Measure>
ng·h/mL

>  <Number>
21

$$$$

Now take the following compound into account.
query: What measured AUC(0-t) goes with Nc1ccn([C@H]2C[C@H](O)[C@@H](CO)O2)c(=O)n1 ?
result: 10.3

====

Experiment: Phase 1 open-label, fixed-sequence, single-ascending dose and food-effect PK study of MT1621 in adult healthy subjects
Type: in vivo, human
Conditions: both sexes, human, plasma, oral, 133.3 mg/kg, Treatment D: single 133.3 mg/kg MT1621, fed (high-fat breakfast); baseline-adjusted plasma; geometric mean (geometric CV %); read-out: AUC0-4
Assign AUC(0-t) to each entry below.
Give bare numbers, in ng·h/mL.

>  <Entry Smiles>
Cc1cn([C@H]2C[C@H](O)[C@@H](CO)O2)c(=O)[nH]c1=O

>  <Unit Of Measure>
ng·h/mL

>  <AUC(0-t)>
74.4

$$$$

query: What measured AUC(0-t) goes with Nc1ccn([C@H]2C[C@H](O)[C@@H](CO)O2)c(=O)n1 ?
result: 31.7

====

Assay: Phase 1 open-label, fixed-sequence, single-ascending dose and food-effect PK study of MT1621 in adult healthy subjects
Assay type: in vivo, human
Conditions: both sexes, human, plasma, oral, 133.3 mg/kg, Treatment D: single 133.3 mg/kg MT1621, fed (high-fat breakfast); baseline-adjusted plasma; geometric mean (geometric CV %); read-out: AUC0-6
Assign AUC(0-t) to each entry below.
Answers are plain numbers, in ng·h/mL.

>  <Entry Smiles>
Nc1ccn([C@H]2C[C@H](O)[C@@H](CO)O2)c(=O)n1

>  <AUC(0-t), ng·h/mL>
48.2

$$$$

query: What measured AUC(0-t) goes with Cc1cn([C@H]2C[C@H](O)[C@@H](CO)O2)c(=O)[nH]c1=O ?
result: 119

====

Assign AUC(0-t) to each entry below.
Test: Phase 1 open-label, fixed-sequence, single-ascending dose and food-effect PK study of MT1621 in adult healthy subjects
Assay type: in vivo, human
Conditions: both sexes, human, plasma, oral, 43.3 mg/kg, Treatment A: single 43.3 mg/kg MT1621, fasted; baseline-adjusted plasma; geometric mean (geometric CV %); read-out: AUC0-48
State the result as a value with its unit after it.

>  <Entry Smiles>
Nc1ccn([C@H]2C[C@H](O)[C@@H](CO)O2)c(=O)n1

>  <Result>
19.6 ng·h/mL

$$$$

Now take the following compound into account.
query: What measured AUC(0-t) goes with Cc1cn([C@H]2C[C@H](O)[C@@H](CO)O2)c(=O)[nH]c1=O ?
result: 18.2 ng·h/mL

====

Assay: Phase 1 open-label, fixed-sequence, single-ascending dose and food-effect PK study of MT1621 in adult healthy subjects
Format: in vivo, human
Conditions: both sexes, human, plasma, oral, 86.7 mg/kg, Treatment B: single 86.7 mg/kg MT1621, fasted; baseline-adjusted plasma; geometric mean (geometric CV %); read-out: Cmax
Experimental Endpoint: Cmax (ng/mL)
Give bare numbers, in ng/mL.

>  <Compound>
Nc1ccn([C@H]2C[C@H](O)[C@@H](CO)O2)c(=O)n1 [dC, β-D-2′-deoxycytidine]

>  <Unit Of Measure>
ng/mL

>  <Cmax>
4.67

$$$$

Now take the following compound into account.
query: What measured Cmax goes with Cc1cn([C@H]2C[C@H](O)[C@@H](CO)O2)c(=O)[nH]c1=O [dT, β-D-2′-deoxythymidine] ?
result: 14.2

====

Assay: Phase 1 open-label, fixed-sequence, single-ascending dose and food-effect PK study of MT1621 in adult healthy subjects
Format: in vivo, human
Conditions: both sexes, human, plasma, oral, 86.7 mg/kg, Treatment B: single 86.7 mg/kg MT1621, fasted; baseline-adjusted plasma; arithmetic mean ± SD; read-out: t½ (converted)
Experimental Endpoint: half-life (h)
One number for each entry, in h.

>  <Entry Smiles>
Cc1cn([C@H]2C[C@H](O)[C@@H](CO)O2)c(=O)[nH]c1=O

>  <Unit Of Measure>
h

>  <half-life>
10.4

$$$$

Now take the following compound into account.
query: What measured half-life goes with Nc1ccn([C@H]2C[C@H](O)[C@@H](CO)O2)c(=O)n1 ?
result: 8.62

====

Experiment: Phase 1 open-label, fixed-sequence, single-ascending dose and food-effect PK study of MT1621 in adult healthy subjects
Assay type: in vivo, human
Conditions: both sexes, human, plasma, oral, 133.3 mg/kg, Treatment D: single 133.3 mg/kg MT1621, fed (high-fat breakfast); baseline-adjusted plasma; arithmetic mean ± SD; read-out: t½ (converted)
Assign half-life to each entry below.
Numbers only, in h.

>  <Compound>
Nc1ccn([C@H]2C[C@H](O)[C@@H](CO)O2)c(=O)n1 [dC, β-D-2′-deoxycytidine]

>  <Experimental Endpoint>
half-life

>  <Number>
0.986

$$$$

Now take the following compound into account.
query: What measured half-life goes with Cc1cn([C@H]2C[C@H](O)[C@@H](CO)O2)c(=O)[nH]c1=O [dT, β-D-2′-deoxythymidine] ?
result: 5.35

====

Experiment: Phase 1 open-label, fixed-sequence, single-ascending dose and food-effect PK study of MT1621 in adult healthy subjects
Type: in vivo, human
Conditions: both sexes, human, plasma, oral, 86.7 mg/kg, Treatment B: single 86.7 mg/kg MT1621, fasted; baseline-adjusted plasma; geometric mean (geometric CV %); read-out: AUC0-48
Assign AUC(0-t) to each entry below.
Give bare numbers, in ng·h/mL.

>  <Compound>
Nc1ccn([C@H]2C[C@H](O)[C@@H](CO)O2)c(=O)n1 [dC, β-D-2′-deoxycytidine]

>  <AUC(0-t) (ng·h/mL)>
29.4

$$$$

Now take the following compound into account.
query: What measured AUC(0-t) goes with Cc1cn([C@H]2C[C@H](O)[C@@H](CO)O2)c(=O)[nH]c1=O [dT, β-D-2′-deoxythymidine] ?
result: 82.1
